FYI, the data here is from PubChem BioAssay AID2060506.

# Test system: 598228-144-R-J1-PDC complex spheroid viability
# method description: Anticancer human tumor 598228-144-R-J1-PDC patient-derived serous endometrial adenocarcinoma cell line growth inhibition [GQUAD]
# run conditions: second compound 3.16 µM; first compound 0.1 µM; hits give low values
Entries and their viability, T/C

Qu. Would you kindly share the measured viability, T/C for C#Cc1c(F)ccc2cc(O)cc(-c3ncc4c(N5CC6CCC(C5)N6)nc(OCC56CCCN5CC(F)C6)nc4c3F)c12 (stereo not given) + Cc1cnc(CNC(=O)c2c(=O)c3ccc(N4CCCN(C)CC4)nc3n3c2sc2ccccc23)cn1 ?
Ans. 50.9%

Qu. Would you kindly share the measured viability, T/C for C=CC(=O)N1CCN(c2nc(=O)n(-c3c(C)ccnc3C(C)C)c3nc(-c4c(O)cccc4F)c(F)cc23)C(C)C1 (stereo not given) + Cc1[nH]c2ccc(F)cc2c1-c1nc2c3cccnc3c3ncccc3c2[nH]1 ?
Ans. 37.2%

Qu. Would you kindly share the measured viability, T/C for Cc1cccc(N(C)C(=O)C2C(O)CCN2c2nc(C)cc(C(F)(F)F)c2C#N)c1 (stereo not given) + CN(C)c1ccc(Nc2c3ccc(NC(=O)CCN4CCCC4)cc3nc3cc(NC(=O)CCN4CCCC4)ccc23)cc1 ?
Ans. 106%

Qu. Would you kindly share the measured viability, T/C for CC(C)n1c(=O)n(C)c2cnc3cc(F)c(-c4ccc(OCCCN5CCCCC5)nc4)cc3c21 + Cc1cnc(CNC(=O)c2c(=O)c3ccc(N4CCCN(C)CC4)nc3n3c2sc2ccccc23)cn1 ?
Ans. 46%

Qu. Would you kindly share the measured viability, T/C for C=CC(=O)N1CCN(c2nc(=O)n(-c3c(C)ccnc3C(C)C)c3nc(-c4c(O)cccc4F)c(F)cc23)C(C)C1 (stereo not given) + CN(C)c1ccc(Nc2c3ccc(NC(=O)CCN4CCCC4)cc3nc3cc(NC(=O)CCN4CCCC4)ccc23)cc1 ?
Ans. 111%

====

# System: 598228-144-R-J1-PDC complex spheroid viability
# method description: Anticancer human tumor 598228-144-R-J1-PDC cell line growth inhibition [GQUAD];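 note: spheroids exposed to the agents for one week before reading; percent of vehicle DMSO control viability so 100% = untreated growth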
# run conditions: second compound 0.0316 µM; first compound 0.0999 µM; hits give low values
property measured: viability, T/C (%)
Just the number in %, nothing appended.

| molecule | target system | viability, T/C / % |
| --- | --- | --- |
| CCc1c2c(nc3ccc(O)cc13)-c1cc3c(c(=O)n1C2)COC(=O)[C@]3(O)CC + CN(C)c1ccc(Nc2c3ccc(NC(=O)CCN4CCCC4)cc3nc3cc(NC(=O)CCN4CCCC4)ccc23)cc1 | 598228-144-R-J1-PDC complex spheroid viability | 30.5 |

Qu. Would you kindly share the measured viability, T/C for Cc1[nH]c2ccccc2c1CCNCc1ccc(/C=C/C(=O)NO)cc1 + Cc1cnc(CNC(=O)c2c(=O)c3ccc(N4CCCN(C)CC4)nc3n3c2sc2ccccc23)cn1 ?
Ans. 32.4

Qu. Would you kindly share the measured viability, T/C for Cn1ncnc1[C@H]1c2n[nH]c(=O)c3cc(F)cc(c23)N[C@@H]1c1ccc(F)cc1 + CN(C)c1ccc(Nc2c3ccc(NC(=O)CCN4CCCC4)cc3nc3cc(NC(=O)CCN4CCCC4)ccc23)cc1 ?
Ans. 80.8

Qu. Would you kindly share the measured viability, T/C for CCc1c2c(nc3ccc(O)cc13)-c1cc3c(c(=O)n1C2)COC(=O)[C@]3(O)CC + Cc1[nH]c2ccc(F)cc2c1-c1nc2c3cccnc3c3ncccc3c2[nH]1 ?
Ans. 37.9

Qu. Would you kindly share the measured viability, T/C for Cc1[nH]c2ccccc2c1CCNCc1ccc(/C=C/C(=O)NO)cc1 + CN(C)c1ccc(Nc2c3ccc(NC(=O)CCN4CCCC4)cc3nc3cc(NC(=O)CCN4CCCC4)ccc23)cc1 ?
Ans. 29.1

Qu. Would you kindly share the measured viability, T/C for Cn1ncnc1[C@H]1c2n[nH]c(=O)c3cc(F)cc(c23)N[C@@H]1c1ccc(F)cc1 + Cc1[nH]c2ccc(F)cc2c1-c1nc2c3cccnc3c3ncccc3c2[nH]1 ?
Ans. 80.8

====

# Tested on: 598228-144-R-J1-PDC complex spheroid viability
# method description: Anticancer human tumor 598228-144-R-J1-PDC cell line growth inhibition [GQUAD];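 note: spheroids exposed to the agents for one week before reading; percent of vehicle DMSO control viability so 100% = untreated growth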
# run conditions: second compound 1 µM; first compound 0.000999 µM; hits give low values
property measured: viability, T/C (%)
Just the number in %, nothing appended.

| compound | viability, T/C, % |
| --- | --- |
| Cn1ncnc1[C@H]1c2n[nH]c(=O)c3cc(F)cc(c23)N[C@@H]1c1ccc(F)cc1 + Cc1[nH]c2ccc(F)cc2c1-c1nc2c3cccnc3c3ncccc3c2[nH]1 | 63.9 |

Qu. Would you kindly share the measured viability, T/C for CC[C@@]1(O)C(=O)OCc2c1cc1n(c2=O)Cc2cc3c(CN(C)C)c(O)ccc3nc2-1 + Cc1[nH]c2ccc(F)cc2c1-c1nc2c3cccnc3c3ncccc3c2[nH]1 ?
Ans. 64.6

Qu. Would you kindly share the measured viability, T/C for Cc1[nH]c2ccccc2c1CCNCc1ccc(/C=C/C(=O)NO)cc1 + CN(C)c1ccc(Nc2c3ccc(NC(=O)CCN4CCCC4)cc3nc3cc(NC(=O)CCN4CCCC4)ccc23)cc1 ?
Ans. 96.9

Qu. Would you kindly share the measured viability, T/C for Cn1ncnc1[C@H]1c2n[nH]c(=O)c3cc(F)cc(c23)N[C@@H]1c1ccc(F)cc1 + Cc1cnc(CNC(=O)c2c(=O)c3ccc(N4CCCN(C)CC4)nc3n3c2sc2ccccc23)cn1 ?
Ans. 55.5

Qu. Would you kindly share the measured viability, T/C for Cc1[nH]c2ccccc2c1CCNCc1ccc(/C=C/C(=O)NO)cc1 + Cc1cnc(CNC(=O)c2c(=O)c3ccc(N4CCCN(C)CC4)nc3n3c2sc2ccccc23)cn1 ?
Ans. 62.7

Qu. Would you kindly share the measured viability, T/C for CC[C@@]1(O)C(=O)OCc2c1cc1n(c2=O)Cc2cc3c(CN(C)C)c(O)ccc3nc2-1 + Cc1cnc(CNC(=O)c2c(=O)c3ccc(N4CCCN(C)CC4)nc3n3c2sc2ccccc23)cn1 ?
Ans. 71

====

# Tested on: 598228-144-R-J1-PDC complex spheroid viability
# method description: Anticancer human tumor 598228-144-R-J1-PDC cell line growth inhibition [GQUAD];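 note: spheroids exposed to the agents for one week before reading; percent of vehicle DMSO control viability so 100% = untreated growth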
# run conditions: second compound 0.316 µM; first compound 0.00316 µM; hits give low values
Entries and their viability, T/C

Example entries begin here.
| compound | target system | property measured | observed value |
| --- | --- | --- | --- |
| Cn1ncnc1[C@H]1c2n[nH]c(=O)c3cc(F)cc(c23)N[C@@H]1c1ccc(F)cc1 + Cc1[nH]c2ccc(F)cc2c1-c1nc2c3cccnc3c3ncccc3c2[nH]1 | 598228-144-R-J1-PDC complex spheroid viability | viability, T/C | 79.3% |
| Cn1ncnc1[C@H]1c2n[nH]c(=O)c3cc(F)cc(c23)N[C@@H]1c1ccc(F)cc1 + Cc1cnc(CNC(=O)c2c(=O)c3ccc(N4CCCN(C)CC4)nc3n3c2sc2ccccc23)cn1 | 598228-144-R-J1-PDC complex spheroid viability | viability, T/C | 76.4% |
| Cc1[nH]c2ccccc2c1CCNCc1ccc(/C=C/C(=O)NO)cc1 + Cc1[nH]c2ccc(F)cc2c1-c1nc2c3cccnc3c3ncccc3c2[nH]1 | 598228-144-R-J1-PDC complex spheroid viability | viability, T/C | 108% |
| CC[C@@]1(O)C(=O)OCc2c1cc1n(c2=O)Cc2cc3c(CN(C)C)c(O)ccc3nc2-1 + CN(C)c1ccc(Nc2c3ccc(NC(=O)CCN4CCCC4)cc3nc3cc(NC(=O)CCN4CCCC4)ccc23)cc1 | 598228-144-R-J1-PDC complex spheroid viability | viability, T/C | 104% |
| CC[C@@]1(O)C(=O)OCc2c1cc1n(c2=O)Cc2cc3c(CN(C)C)c(O)ccc3nc2-1 + Cc1cnc(CNC(=O)c2c(=O)c3ccc(N4CCCN(C)CC4)nc3n3c2sc2ccccc23)cn1 | 598228-144-R-J1-PDC complex spheroid viability | viability, T/C | 67.9% |

Qu. Would you kindly share the measured viability, T/C for CCc1c2c(nc3ccc(O)cc13)-c1cc3c(c(=O)n1C2)COC(=O)[C@]3(O)CC + Cc1[nH]c2ccc(F)cc2c1-c1nc2c3cccnc3c3ncccc3c2[nH]1 ?
Ans. 62.7%

Qu. Would you kindly share the measured viability, T/C for Cc1[nH]c2ccccc2c1CCNCc1ccc(/C=C/C(=O)NO)cc1 + CN(C)c1ccc(Nc2c3ccc(NC(=O)CCN4CCCC4)cc3nc3cc(NC(=O)CCN4CCCC4)ccc23)cc1 ?
Ans. 96.8%

====

# Tested on: 598228-144-R-J1-PDC complex spheroid viability
# method description: Anticancer human tumor 598228-144-R-J1-PDC cell line growth inhibition [GQUAD];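 note: spheroids exposed to the agents for one week before reading; percent of vehicle DMSO control viability so 100% = untreated growth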
# run conditions: second compound 0.316 µM; first compound 1 µM; hits give low values
Entries and their viability, T/C
Just the number in %, nothing appended.

| molecule | viability, T/C / % |
| --- | --- |
| CCCS(=O)(=O)Nc1ccc(F)c(C(=O)c2c[nH]c3ncc(-c4ccc(Cl)cc4)cc23)c1F + Cc1cnc(CNC(=O)c2c(=O)c3ccc(N4CCCN(C)CC4)nc3n3c2sc2ccccc23)cn1 | 62.3 |

Qu. Would you kindly share the measured viability, T/C for CCCS(=O)(=O)Nc1ccc(F)c(C(=O)c2c[nH]c3ncc(-c4ccc(Cl)cc4)cc23)c1F + CN(C)c1ccc(Nc2c3ccc(NC(=O)CCN4CCCC4)cc3nc3cc(NC(=O)CCN4CCCC4)ccc23)cc1 ?
Ans. 124

Qu. Would you kindly share the measured viability, T/C for O=c1[nH]cc(F)c(=O)[nH]1 + CN(C)c1ccc(Nc2c3ccc(NC(=O)CCN4CCCC4)cc3nc3cc(NC(=O)CCN4CCCC4)ccc23)cc1 ?
Ans. 108
